Just for reference, patent US10253076B2 is where these values come from.

# MEASURED TARGET: HLA-A*02:01 (Homo sapiens, UniProt P04439, D140Y/D185E/D98H/E176V/E277Q/G131W/G231S/I119V/I121R/I166T/I218V/L300P/L318F/N151K/N90K/P208A/P217A/Q86G/Q94H/R138H/R169H/T345S)
# EXPERIMENT NOTES: MHC binding assay (UV-ligand exchange, beta2m ELISA, peptide exchange yield)
# TEST PARAMETERS: binding of HLA-class I restricted peptides to HLA-A*02:01, ranged by peptide exchange yield (UV-ligand exchange, β2m ELISA)

| SUBSTANCE | Peptide exchange |
| --- | --- |
| 464 (ALNDCIYSV; listed as Homo sapiens) [compound 464] | ″+++″ (≥50% = +++) |
| 560 (ALWDIETGQQTTT; listed as Homo sapiens) [compound 560] | ″+++″ (≥50% = +++) |
| 552 (GLLDLPFRVGV; listed as Homo sapiens) [compound 552] | ″++++″ (≥75% = ++++) |
| 587 (VMNDRLYAI; listed as Homo sapiens) [compound 587] | ″+++″ (≥50% = +++) |
| 269 (RVLEVGALQAV; listed as Homo sapiens) [compound 269] | ″++″ (≥20% = ++) |
| 297 (VLADIELAQA; listed as Homo sapiens) [compound 297] | ″+++″ (≥50% = +++) |
| 231 (FLSPQQPPLLL; listed as Homo sapiens) [compound 231] | ″++″ (≥20% = ++) |
| 288 (NLINEINGV; listed as Homo sapiens) [compound 288] | ″+++″ (≥50% = +++) |
| 96 (YIFTDNPAAV; listed as Homo sapiens) [compound 96] | ″+++″ (≥50% = +++) |
| 495 (FIFSEKPVFV; listed as Homo sapiens) [compound 495] | ″+++″ (≥50% = +++) |
| 207 (GLTSTNAEV; listed as Homo sapiens) [compound 207] | ″++″ (≥20% = ++) |
| 247 (VLLPNDLLEKV; listed as Homo sapiens) [compound 247] | ″+++″ (≥50% = +++) |
| 76 (ILIDSIYKV; listed as Homo sapiens) [compound 76] | ″+++″ (≥50% = +++) |
| 350 (ALLDVTHSELTV; listed as Homo sapiens) [compound 350] | ″+++″ (≥50% = +++) |
| 366 (RLLDMGETDLML; listed as Homo sapiens) [compound 366] | ″+++″ (≥50% = +++) |
| 612 (YLYNEGLSV; listed as Homo sapiens) [compound 612] | ″+++″ (≥50% = +++) |
| 432 (TLIEESAKV; listed as Homo sapiens) [compound 432] | ″++″ (≥20% = ++) |
| 197 (ALGPEGGRV; listed as Homo sapiens) [compound 197] | ″++″ (≥20% = ++) |
| 582 (TLCDVILMV; listed as Homo sapiens) [compound 582] | ″+++″ (≥50% = +++) |
| 353 (YLFEMDSSL; listed as Homo sapiens) [compound 353] | ″++″ (≥20% = ++) |
| 47 (ILLSVPLLVV; listed as Homo sapiens) [compound 47] | ″++″ (≥20% = ++) |
| 206 (VLQEGKLQKLAQL; listed as Homo sapiens) [compound 206] | ″+++″ (≥50% = +++) |
| 252 (LLIGTDVSL; listed as Homo sapiens) [compound 252] | ″+++″ (≥50% = +++) |
| 476 (ALMERTGYSMV; listed as Homo sapiens) [compound 476] | ″+++″ (≥50% = +++) |
| 261 (YVLEFLEEI; listed as Homo sapiens) [compound 261] | ″++″ (≥20% = ++) |
| 71 (GILARIASV; listed as Homo sapiens) [compound 71] | ″+++″ (≥50% = +++) |
| 20 (RMIEYFIDV; listed as Homo sapiens) [compound 20] | ″+++″ (≥50% = +++) |
| 262 (LLWGDLIWL; listed as Homo sapiens) [compound 262] | ″+++″ (≥50% = +++) |
| 594 (IMLKGDNITL; listed as Homo sapiens) [compound 594] | ″+++″ (≥50% = +++) |
| 173 (LLDSASAGLYL; listed as Homo sapiens) [compound 173] | ″+++″ (≥50% = +++) |
| 7 (SLVGLLLYL; listed as Homo sapiens) [compound 7] | ″++++″ (≥75% = ++++) |
| 195 (GLFADLLPRL; listed as Homo sapiens) [compound 195] | ″+++″ (≥50% = +++) |
| 161 (ALLEGVNTV; listed as Homo sapiens) [compound 161] | ″+++″ (≥50% = +++) |
| 583 (ILANDGVLLAA; listed as Homo sapiens) [compound 583] | ″+++″ (≥50% = +++) |
| 212 (ALWDQDNLSV; listed as Homo sapiens) [compound 212] | ″++″ (≥20% = ++) |
| 46 (ILTEENIHL; listed as Homo sapiens) [compound 46] | ″+++″ (≥50% = +++) |
| 485 (NVPDSFNEV; listed as Homo sapiens) [compound 485] | ″+++″ (≥50% = +++) |
| 18 (YLVAKLVEV; listed as Homo sapiens) [compound 18] | ″++″ (≥20% = ++) |
